System Under Test: T1, purified human CD117 ectodomain (R&D Systems #332-SR) (human, UniProt P10721 26-524)
T1 construct: extracellular domain; Bought protein; also called c-kit; purified recombinant human CD117 ectodomain
T1 sequence (P10721 26-524): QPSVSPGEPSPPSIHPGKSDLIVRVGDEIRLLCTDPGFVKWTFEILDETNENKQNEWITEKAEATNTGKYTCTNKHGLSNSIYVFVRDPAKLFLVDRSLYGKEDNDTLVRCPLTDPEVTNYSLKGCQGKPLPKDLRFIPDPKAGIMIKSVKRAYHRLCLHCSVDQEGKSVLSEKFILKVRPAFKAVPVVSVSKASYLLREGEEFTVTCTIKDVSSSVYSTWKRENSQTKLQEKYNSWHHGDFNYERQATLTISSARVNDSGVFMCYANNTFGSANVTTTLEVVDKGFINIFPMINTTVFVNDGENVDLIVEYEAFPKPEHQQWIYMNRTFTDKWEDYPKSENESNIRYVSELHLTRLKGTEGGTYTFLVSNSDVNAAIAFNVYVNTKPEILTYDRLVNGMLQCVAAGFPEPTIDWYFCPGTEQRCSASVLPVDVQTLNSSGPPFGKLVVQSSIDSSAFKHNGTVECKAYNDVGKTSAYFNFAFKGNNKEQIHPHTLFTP
Assay Method Text: BLI, IgG on anti-human Fc sensor, 33 and 11 nM ectodomain;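 note: Kd, kon and koff are apparent values, with Kd reported as the apparent monovalent affinity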
Experimental Readout: koff (s⁻¹)
All answers are understood in s⁻¹, so give the number only.

Form field: reported koff of HC-245/LC-245 (Ab245) (antibody, V domains shown, IgG on anti-human Fc sensors; hIgG1/hKappa) VH: EVQLVQSGAEVKKPGESLKISCKGSGYRFTTSWIGWVRQMPGKGLEWMGIIYPGDSDTRYSPSFQGQVTISADKSISTAYLQWSSLKASDTAMYYCARHGLGYNGYEGAFDIWGQGTLVTVSS VL: DIQMTQSPSSLSASVGDRVTITCRASQGIGSALAWYQQKPGKAPKLLIYDASTLESGVPSRFSGSGSGTDFTLTISSLQPEDFATYYCQQFNGYPLTFGQGTRLEIK
0.000285

Same for HC-247/LC-247 (Ab247) (antibody, V domains shown, IgG on anti-human Fc sensors; hIgG1/hKappa) VH: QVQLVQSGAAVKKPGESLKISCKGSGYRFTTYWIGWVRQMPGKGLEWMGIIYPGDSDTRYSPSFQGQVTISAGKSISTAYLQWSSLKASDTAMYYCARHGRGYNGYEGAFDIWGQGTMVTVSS VL: DIQMTQSPSSLSASVGDRVTITCRASRGISDYLAWYQQKPGKAPKLLIYDASNLETGVPSRFSGSGSGTDFTLTISSLQPEDFATYYCQQANSFPITFGQGTRLEIK
0.00063
